# System: HS 578T breast
# Protocol description: NCI-60 one-dose screen, 48 h
# Experimental setup: 10 µM unless noted
Compounds without any hit were thinned out: in the full panel of roughly 83,000, 20% have a hit. Active and inactive are the calls of the source. How the source made its calls: active means growth percent below 10; inactive means the rest.
Use one of these outcomes when replying: active, inactive

Consider the following illustrative entries.
Molecule	Group label
Cc1cc(Cl)cc(Cc2cc(Cl)cc(C)c2O)c1O	active
CCCCCC(=O)OCCC1CCCCC1	inactive
O=C(O)c1c[nH]c2ccccc2c1=O	inactive
CCOC(=O)CNC(=O)Sc1ccc(C(C)(C)C)cc1	inactive
O=C(O)CC1=CCCCC1	inactive

GET /call?item= NCCCN1CCCC1=O returns the recorded outcome of this test.
inactive

GET /call?item= CC1=CC(=Nc2ccc(N(C)C)cc2)C=C(C)C1=O returns the recorded outcome of this test.
inactive

GET /call?item= O=C(OCc1ccccc1)n1nnc2ccccc21 returns the recorded outcome of this test.
inactive

GET /call?item= C=C1CC2(OC1=O)C(=O)N(C)c1ccc(I)cc12 (stereo not drawn) returns the recorded outcome of this test.
active

GET /call?item= CCCC(=O)CC(=O)c1ccccc1 returns the recorded outcome of this test.
inactive

GET /call?item= CCOC(=O)c1c[nH][nH]c1=O returns the recorded outcome of this test.
inactive

GET /call?item= NNC(=O)CCCCl returns the recorded outcome of this test.
inactive

GET /call?item= Cc1ccccc1NC(=O)Oc1ccc(Cl)cc1C(=O)c1ccccc1 returns the recorded outcome of this test.
inactive
